- experiment description: Evaluation of conversion rate to active form in buffer solution (Experimental Example 1)
- Assay type: physicochemical
- stated conditions: pH6.0, 0 hr, 37° C., 25 umol/L in buffer solution
quantity name: Production rate of Alvocidib (%)

                                   compound                 quantity_name  output_unit  recorded_value
0  CN1CC[C@H](c2c(OC(=O)N(C)C[C@@H]3CCCCN3)cc(O)c3c(=O)cc(-c4ccccc4Cl)oc23)[C@H](O)C1  Production rate of Alvocidib            %             0.3
1  CN1CC[C@H](c2c(OC(=O)N(CCC(F)(F)F)CC3CCCCN3)cc(O)c3c(=O)cc(-c4ccccc4Cl)oc23)[C@H](O)C1 (stereo partly drawn)  Production rate of Alvocidib            %             3.3
2  CCCN(CC1CCCCN1)C(=O)Oc1cc(O)c2c(=O)cc(-c3ccccc3Cl)oc2c1[C@H]1CCN(C)C[C@H]1O (stereo partly drawn)  Production rate of Alvocidib            %             1.5
3  CN1CC[C@H](c2c(OC(=O)N(C)C[C@H]3CCCCN3)cc(O)c3c(=O)cc(-c4ccccc4Cl)oc23)[C@H](O)C1  Production rate of Alvocidib            %             0.4
4  CN1CC[C@H](c2c(OC(=O)N(CCF)CC3CCCCN3)cc(O)c3c(=O)cc(-c4ccccc4Cl)oc23)[C@H](O)C1 (stereo partly drawn)  Production rate of Alvocidib            %             0.3
5  CCCN(C[C@@H]1CCCCN1)C(=O)Oc1cc(O)c2c(=O)cc(-c3ccccc3Cl)oc2c1[C@H]1CCN(C)C[C@H]1O  Production rate of Alvocidib            %             0.0
